Recorded koff for the following binders
Molecular target: T1, cynomolgus EREG (Biacore analyte) (cynomolgus monkey, UniProt O14944 63-108 (human entry), limits assumed)
T1 construct: also called cynomolgus monkey EREG; cEREG
T1 sequence (O14944 other isoform, or with tags, fused parts or gaps limits assumed): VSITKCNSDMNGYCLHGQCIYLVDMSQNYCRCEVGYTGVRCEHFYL
Experiment: SPR (Biacore T100), antibody captured on Protein A, EREG as analyte, single-cycle kinetics
Just the number in s⁻¹, nothing appended.

Example binders with recorded koff:
1. H206-G1d/L53-k (antibody, human IgG1, kappa, V domains shown) VH: QDQLVQSGAEVKNPGASVKVSCKASGFNIKDTYIQWVRQAPGQGLEWMGRIDPLRRQTKYREKFEGRVTITADTSTNTAYMELSSLRSEDTAVYYCVRSGREFDFWGQGTLVTVSS VL: DIQMTQSPSSLSASVGDRVTITCRASQDIHKYIAWYQQKPGQAPRLLIQYTSTLQPGVPSRFSGSGSGTDYTFTISSLQPEDIATYYCLQYDNLRTFGGGTKVEIKR ... 0.00061
2. H240-G1d/L53-k (antibody, human IgG1, kappa, V domains shown) VH: QDQLVQSGAEVKKPGASVKVSCKASGFNIKDTYIQWVRQAPGQGLEWMGRIDPLRKQTKYREKFEGRVTITADTSTNTAYMELSSLRSEDTAVYYCVRSGREFDYWGQGTLVTVSS VL: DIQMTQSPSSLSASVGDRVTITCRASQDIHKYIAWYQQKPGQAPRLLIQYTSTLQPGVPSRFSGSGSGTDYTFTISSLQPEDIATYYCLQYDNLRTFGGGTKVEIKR ... 0.00089

Let me know recorded koff for H206-G1d/L73-k (antibody, human IgG1, kappa, V domains shown) VH: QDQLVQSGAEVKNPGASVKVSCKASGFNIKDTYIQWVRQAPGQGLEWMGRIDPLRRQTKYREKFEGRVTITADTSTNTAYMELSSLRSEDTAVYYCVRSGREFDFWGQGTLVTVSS VL: DIQMTQSPSSLSASVGDRVTITCRASQDIHKYIAWYQQKPGQAPRLLIQYTSTLQPGVPSRFSGSGSGTDYTFTISSLQPEDIATYYCLQYEQLRTFGGGTKVEIKR , thanks.
0.00023
